Give measured self-splicing fitness (ln) for each item. Keep answers brief.
test_summary: self-splicing fitness, log relative to wild type (ln ratio); higher = more splicing; Tetrahymena group I intron in knt gene, E. coli kanamycin selection, DiMSum; sequences stand for … in CUCUCU…GGAGGGAAAAGUUAUCAGGCAUGCACCUGGUAGCUAGUCUUUAAACCAAUAGAUUGCAUCGGUUUAAAAGGCAAGACCGUCAAAUUGCGGGAAAGGGGUCAACAGCCGUUCAGUACCAAGUCUCAGGGGAAACUUUGAGAUGGCCUUGCAAAGGGUAUGGUAAUAAGCUGACGGACAUGGUCCUAACCACGCAGCCAAGUCCUAAGUCAACAGAUCUUCUGUUGAUAUGGAUGCAGUUCACAGACUAAAUGUCGGUCGGGGAAGAUGUAUUCUUCUCAUAAGAUAUAGUCGGACCUCUCCUUAAUGGGAGCUAGCGGAUGAAGUGAUGCAACACUGGAGCCGCUGGGAACUAAUUUGUAUGCGAAAGUAUAUUGAUUAGUUUUGGAGUACUCGUGGUCG;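 note: selection with 25 µg/mL kanamycin versus none on LB agar overnight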
run_parameters: 30 °C
Output spec: single numeric token, no unit.

Look at this sequence and give its reported self-splicing fitness (ln). AUAGAGCAAUAUUACGUCCU
-1.42

Look at this sequence and give its reported self-splicing fitness (ln). ACGCAGCAAUAUUACGUUAG
-4.1

Look at this sequence and give its reported self-splicing fitness (ln). CGACAGCAAUAUUACGUACA
-0.66

Look at this sequence and give its reported self-splicing fitness (ln). UGCGAGCAAUAUUACGAUUC
-2.7

Look at this sequence and give its reported self-splicing fitness (ln). CCUAAGCAAUAUUACGCACC
-3.09

Look at this sequence and give its reported self-splicing fitness (ln). UCAAAGCAAUAUUACGGUAA
-2.48

Recorded values, source the supplement of paper PMC7877785.
